# EXPERIMENTAL_SYSTEM: F876L mutant Androgen Receptor (AR-F876L) (Homo sapiens (Human), UniProt P10275, F877L)
# Sequence (P10275 whole entry F877L): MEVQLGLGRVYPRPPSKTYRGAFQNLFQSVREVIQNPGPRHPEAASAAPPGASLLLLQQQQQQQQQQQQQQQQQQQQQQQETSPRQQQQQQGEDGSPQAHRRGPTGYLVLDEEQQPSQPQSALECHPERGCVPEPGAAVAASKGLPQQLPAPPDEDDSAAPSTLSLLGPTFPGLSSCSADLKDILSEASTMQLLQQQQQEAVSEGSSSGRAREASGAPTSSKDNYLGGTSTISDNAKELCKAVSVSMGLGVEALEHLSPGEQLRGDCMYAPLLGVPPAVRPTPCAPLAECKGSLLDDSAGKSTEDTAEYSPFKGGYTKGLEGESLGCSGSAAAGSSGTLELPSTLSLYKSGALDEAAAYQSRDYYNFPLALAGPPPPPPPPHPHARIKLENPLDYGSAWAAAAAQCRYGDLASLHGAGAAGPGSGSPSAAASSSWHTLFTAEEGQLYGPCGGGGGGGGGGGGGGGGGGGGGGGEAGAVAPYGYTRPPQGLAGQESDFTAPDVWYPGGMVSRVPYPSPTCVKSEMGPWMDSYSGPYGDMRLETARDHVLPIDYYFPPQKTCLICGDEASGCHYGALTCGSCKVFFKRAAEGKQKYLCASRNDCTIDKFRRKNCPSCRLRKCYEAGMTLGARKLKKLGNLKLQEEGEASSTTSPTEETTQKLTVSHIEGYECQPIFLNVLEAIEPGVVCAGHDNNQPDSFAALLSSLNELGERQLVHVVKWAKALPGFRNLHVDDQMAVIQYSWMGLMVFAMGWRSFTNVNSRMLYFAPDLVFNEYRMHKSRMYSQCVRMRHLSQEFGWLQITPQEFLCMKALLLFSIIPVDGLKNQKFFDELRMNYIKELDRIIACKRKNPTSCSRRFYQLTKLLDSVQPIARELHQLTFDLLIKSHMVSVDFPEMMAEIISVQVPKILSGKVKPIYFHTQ
# EXPERIMENTAL_DETAILS: LNCaP-AR-F876L ANT reporter assay (antagonist mode)
# Type: cell-based
# TEST_PARAMETERS: maximum % inhibition of R1881 control response over the tested concentration range; read-out: LNCaP-AR-F876L ANT MAX % Inh
PROPERTY_NAME: Emax (%)
Value expressed in %; do not type the unit.

Request the reported Emax associated with CN1CC(Oc2ccc(N3C(=S)N(c4cnc(C#N)c(C(F)(F)F)c4)C(=O)C34CCC4)cc2)C1
101

Sample CN1CC(COc2ccc(N3C(=S)N(c4cnc(C#N)c(C(F)(F)F)c4)C(=O)C34CCC4)cc2)C1 — what was its Emax?
100

Quick one: Emax for CN1CCC(Cn2ncc3cc(N4C(=S)N(c5cnc(C#N)c(C(F)(F)F)c5)C(=O)C45CCC5)ccc32)CC1 ?
98.7

Consider the molecule COc1cc(N2C(=O)C3(CCC3)N(c3ccc4c(cnn4CCO)c3)C2=S)cnc1C#N and give its measured Emax.
102

Any idea what Emax was measured for COC(=O)C1CCC(N2C(=S)N(c3cnc(C#N)c(C(F)(F)F)c3)C(=O)C23CCC3)CC1 (stereo not drawn) ?
99.1

For the molecule N#Cc1ncc(N2C(=O)C3(CCC3)N(c3ccc4c(cnn4CCO)c3)C2=S)cc1Cl , what Emax is on record?
99.3

Entry under review: Cc1cc(N2C(=O)C3(CCC3)N(c3ccc(OC4CCN(C5CC5)CC4)cc3)C2=S)cnc1C#N . Reported Emax?
99.5

Name the reported Emax value associated with the molecule C#CCN1CCC(Oc2ccc(N3C(=S)N(c4cnc(C#N)c(C(F)(F)F)c4)C(=O)C34CCC4)cn2)CC1
99.6

# get_value(readout='Emax', item= CN1CCC[C@H](Oc2ccc(N3C(=S)N(c4cnc(C#N)c(C(F)(F)F)c4)C(=O)C34CCC4)cc2)C1 )
97.7

Which value of Emax has been reported for CC(C)(C)OC(=O)N1CCC(n2cc3cc(N4C(=S)N(c5cnc(C#N)c(C(F)(F)F)c5)C(=O)C45CCC5)ccc3n2)CC1 in the records?
99.8

Suppose we examine the molecule N#Cc1ncc(N2C(=O)C3(CCC3)N(c3ccc(O)nc3)C2=S)cc1Cl ; what Emax value has been reported?
99.2

Need Emax of CCNC(=O)n1cc(-c2ccc(N3C(=S)N(c4cnc(C#N)c(C)c4)C(=O)C34CCC4)cc2)cn1 , thanks.
100

Need Emax of CN1CC2CC1CC2Oc1ccc(N2C(=S)N(c3cnc(C#N)c(C(F)(F)F)c3)C(=O)C23CCC3)cc1 (stereo not drawn) , thanks.
101

Suppose we examine the molecule CNC1CCC(Oc2ccc(N3C(=S)N(c4cnc(C#N)c(C(F)(F)F)c4)C(=O)C34CCC4)cc2)CC1 (stereo not drawn) ; what Emax value has been reported?
100

Fill in: Emax of COCCN1CCC(Oc2ccc(N3C(=S)N(c4cnc(C#N)c(C(F)(F)F)c4)C(=O)C34CCC4)cc2)CC1 is ___
99.9

I would be grateful if you could share the reported Emax for N#Cc1ncc(N2C(=O)C3(CCC3)N(c3ccc(OCC4CNCCO4)cc3)C2=S)cc1C(F)(F)F (stereo not drawn) .
98.1

Which Emax value belongs to N#Cc1ncc(N2C(=O)C3(CCC3)N(c3ccc(C4=C[C@@H](O)[C@H](O)CO4)cc3)C2=S)cc1C(F)(F)F ?
100

Tell me the measured Emax of CN1CC(CCOc2ccc(N3C(=S)N(c4cnc(C#N)c(C(F)(F)F)c4)C(=O)C34CCC4)cc2)C1 , please.
99

Could you tell me which Emax is on file for CC(C)(C)OC(=O)N1CCN(C(=O)c2ccc(N3C(=S)N(c4cnc(C#N)c(C(F)(F)F)c4)C(=O)C34CCC4)cc2)CC1 ?
74.1

Entry N#Cc1ncc(N2C(=O)C3(CCC3)N(c3ccc(N4CCN(C(=O)N5CCCC5)CC4)cc3)C2=S)cc1C(F)(F)F : reported Emax = ?
97.5

Which Emax is listed for CN1C2CCC1CC(c1ccc(N3C(=S)N(c4cnc(C#N)c(C(F)(F)F)c4)C(=O)C34CCC4)cc1)C2 (stereo not drawn) ?
101

Give its Emax value. Item: N#Cc1ncc(N2C(=O)C3(CCC3)N(c3ccc4nn(CC5CCNCC5)cc4c3)C2=S)cc1C(F)(F)F
100

Field request: Emax | item: CN1CCC(C)(Oc2ccc(N3C(=S)N(c4cnc(C#N)c(C(F)(F)F)c4)C(=O)C34CCC4)cc2)CC1
101

Emax lookup needed for COCc1ccc(-c2ccc(N3C(=S)N(c4cnc(C#N)c(C)c4)C(=O)C34CCC4)cc2)o1 , thanks.
98.1

Consider the molecule Cc1cc(N2C(=O)C3(CCC3)N(c3ccc(OC4CCNCC4)nc3)C2=S)cnc1C#N and give its measured Emax.
100

I am curious: what Emax value has been reported for CC(=O)N1CCc2cc(N3C(=S)N(c4cnc(C#N)c(C(F)(F)F)c4)C(=O)C34CCC4)ccc2C1 ?
101

If you can, please state the reported Emax value of C#CCN1CC(Oc2ccc(N3C(=S)N(c4cnc(C#N)c(C(F)(F)F)c4)C(=O)C34CCC4)cc2)C1 .
99.4

What Emax value was documented for this molecule, N#Cc1ncc(N2C(=O)C3(CCC3)N(c3ccc(O[C@@H]4CCN[C@H](C(F)(F)F)C4)cc3)C2=S)cc1C(F)(F)F (racemic) ?
98.3

Which Emax is reported for this molecule? N#Cc1ncc(N2C(=O)C3(CCC3)N(c3ccc(CN4CCNCC4)cc3)C2=S)cc1C(F)(F)F
100

Endpoint output: Emax of N#Cc1ncc(N2C(=O)C3(CCC3)N(c3ccc(OC4CC5(CNC5)C4)cc3)C2=S)cc1C(F)(F)F . Value?
99.7

* * *

Can you tell me Emax for the items I'm about to list?
# EXPERIMENTAL_SYSTEM: wild-type Androgen Receptor (AR-wt) (Homo sapiens (Human), UniProt P10275)
# Sequence (P10275 whole entry): as the sequence (P10275 whole entry F877L) above, with L877F counted along it
# EXPERIMENTAL_DETAILS: LNCaP-AR-wt ANT reporter assay (antagonist mode)
# Assay type: cell-based
# TEST_PARAMETERS: maximum % inhibition of R1881 control response over the tested concentration range; read-out: LNCaP-AR-wt ANT MAX % Inh
Entry rule: numbers only, all in %.

// lookup Emax for CC(C)CCN1CCC(Oc2ccc(N3C(=S)N(c4cnc(C#N)c(Cl)c4)C(=O)C34CCC4)cn2)CC1 [Cpd 149]
99.8

# input compound: COCCn1ncc2ccc(N3C(=S)N(c4cnc(C#N)c(C(F)(F)F)c4)C(=O)C34CCC4)cc21 [Cpd 160] ; wanted: its Emax
103

Can you share its Emax? I mean this compound: COc1cc(N2C(=O)C3(CCC3)N(c3ccc(OC4CCNCC4)cc3)C2=S)cnc1C#N [Cpd 154]
102

Which Emax is reported for this compound? C#CCN1CCC(Oc2ccc(N3C(=S)N(c4cnc(C#N)c(C(F)(F)F)c4)C(=O)C34CCC4)cc2)CC1 [Cpd 107]
101

Find the recorded Emax belonging to CN1CCc2cc(N3C(=S)N(c4cnc(C#N)c(C(F)(F)F)c4)C(=O)C34CCC4)ccc2C1 [Cpd 125] and report it.
99.5

Please give the measured Emax for this compound: CN1C2CCC1C(F)C(Oc1ccc(N3C(=S)N(c4cnc(C#N)c(C(F)(F)F)c4)C(=O)C34CCC4)cc1)C2 (stereo not drawn) [Cpd 94]
101

Which Emax is reported for this compound? N#Cc1ncc(N2C(=O)C3(CCC3)N(c3ccc(OC4CC5CC4CN5)nc3)C2=S)cc1C(F)(F)F (stereo not drawn) [Cpd 165]
101

Please report the recorded Emax for N#Cc1ncc(N2C(=O)C3(CCC3)N(c3ccc(OC4C5CCC4CNC5)nc3)C2=S)cc1C(F)(F)F (stereo not drawn) [Cpd 139] .
102

Item under review: Cc1cc(N2C(=O)C3(CCC3)N(c3ccc(N4CCNC4=O)cc3)C2=S)cnc1C#N [Cpd 9] . Reported Emax?
94.2

// returns reported Emax for input CC(=O)N1CCC(Cn2ncc3cc(N4C(=S)N(c5cnc(C#N)c(C(F)(F)F)c5)C(=O)C45CCC5)ccc32)CC1 [Cpd 124]
103

Please give the measured Emax for this compound: N#Cc1ncc(N2C(=O)C3(CCC3)N(c3ccc(OC4CCN(CCO)CC4)cc3)C2=S)cc1Cl [Cpd 50]
101

Emax lookup needed for CN1CCC(CNC(=O)c2ccc(N3C(=S)N(c4cnc(C#N)c(C(F)(F)F)c4)C(=O)C34CCC4)cc2)CC1 [Cpd 72] , thanks.
101

# Emax lookup, item C#CCN1CCC(Oc2ccc(N3C(=S)N(c4cnc(C#N)c(C(F)(F)F)c4)C(=O)C34CCC4)cn2)CC1 [Cpd 104]
101

Any idea what its Emax is? The compound is CC(C)(C)OC(=O)N1CCC(n2cc3cc(N4C(=S)N(c5cnc(C#N)c(C(F)(F)F)c5)C(=O)C45CCC5)ccc3n2)CC1 [Cpd 121]
97.9

May I ask what Emax has been recorded for Cn1cc2cc(N3C(=S)N(c4cnc(C#N)c(C(F)(F)F)c4)C(=O)C34CCC4)ccc2n1 [Cpd 174] ?
102

Form field: reported Emax of CC(C)(C)CCN1CCC(Oc2ccc(N3C(=S)N(c4cnc(C#N)c(C(F)(F)F)c4)C(=O)C34CCC4)cc2)CC1 [Cpd 34]
82.7

Please report the recorded Emax for C[C@@H]1OC(c2ccc(N3C(=S)N(c4cnc(C#N)c(C(F)(F)F)c4)C(=O)C34CCC4)cc2)=C[C@H](O)[C@H]1O [Cpd 135] .
104

Form field: reported Emax of Cn1cc(N2C(=S)N(c3cnc(C#N)c(C(F)(F)F)c3)C(=O)C23CCC3)ccc1=O [Cpd 133]
98.3

Returns the measured Emax for the input compound. Input: Cc1cc(N2C(=O)C3(CCC3)N(c3ccc(-c4cn[nH]c4)cc3)C2=S)cnc1C#N [Cpd 3]
97.8

What Emax value was documented for this compound, COCCn1cc2cc(N3C(=S)N(c4cnc(C#N)c(Cl)c4)C(=O)C34CCC4)ccc2n1 [Cpd 169] ?
99.6

Record request: Emax value, item COCCN1CCC(Oc2ccc(N3C(=S)N(c4cnc(C#N)c(C(F)(F)F)c4)C(=O)C34CCC4)cn2)CC1 [Cpd 61]
99.2

Which value of Emax has been reported for COc1ccc(N2C(=S)N(c3cnc(C#N)c(C(F)(F)F)c3)C(=O)C23CCC3)cn1 [Cpd 15] in the records?
101

# query: Emax of entry Cc1cc(N2C(=O)C3(CCC3)N(c3ccc(OC4CCN(C5CC5)CC4)cc3)C2=S)cnc1C#N [Cpd 35]
100

Entry N#Cc1ncc(N2C(=O)C3(CCC3)N(c3ccc(OC4CCN(CC(F)(F)F)CC4)nc3)C2=S)cc1C(F)(F)F [Cpd 66] : reported Emax = ?
99

Can you look up the measured Emax of CC(=O)N1CCC(n2ncc3cc(N4C(=S)N(c5cnc(C#N)c(C(F)(F)F)c5)C(=O)C45CCC5)ccc32)CC1 [Cpd 131] for me?
101

Find the recorded Emax belonging to N#Cc1ncc(N2C(=O)C3(CCC3)N(c3ccc(CN4CCNCC4)cc3)C2=S)cc1C(F)(F)F [Cpd 48] and report it.
102

Which value of Emax has been reported for N#Cc1ncc(N2C(=O)C3(CCC3)N(c3ccc(OC4CC5(CNC5)C4)cc3)C2=S)cc1C(F)(F)F [Cpd 86] in the records?
100

Using the record for C=CCN1CCC(Oc2ccc(N3C(=S)N(c4cnc(C#N)c(C)c4)C(=O)C34CCC4)cn2)CC1 [Cpd 99] , report its Emax.
101

Can you share its Emax? I mean this compound: Cc1cc(N2C(=O)C3(CCC3)N(c3ccc(OCCCN(C)C)nc3)C2=S)cnc1C#N [Cpd 27]
101

# lookup: Emax of CN1CC2CC1CC2Oc1ccc(N2C(=S)N(c3cnc(C#N)c(C(F)(F)F)c3)C(=O)C23CCC3)cc1 (stereo not drawn) [Cpd 176]
104
